Reference source: patent US9745310B2

Below, each entry is listed with its recorded EC50.
# studySystem: human mGluR5 receptor (Homo sapiens (Human), UniProt P41594)
# Sequence (P41594 21-1212): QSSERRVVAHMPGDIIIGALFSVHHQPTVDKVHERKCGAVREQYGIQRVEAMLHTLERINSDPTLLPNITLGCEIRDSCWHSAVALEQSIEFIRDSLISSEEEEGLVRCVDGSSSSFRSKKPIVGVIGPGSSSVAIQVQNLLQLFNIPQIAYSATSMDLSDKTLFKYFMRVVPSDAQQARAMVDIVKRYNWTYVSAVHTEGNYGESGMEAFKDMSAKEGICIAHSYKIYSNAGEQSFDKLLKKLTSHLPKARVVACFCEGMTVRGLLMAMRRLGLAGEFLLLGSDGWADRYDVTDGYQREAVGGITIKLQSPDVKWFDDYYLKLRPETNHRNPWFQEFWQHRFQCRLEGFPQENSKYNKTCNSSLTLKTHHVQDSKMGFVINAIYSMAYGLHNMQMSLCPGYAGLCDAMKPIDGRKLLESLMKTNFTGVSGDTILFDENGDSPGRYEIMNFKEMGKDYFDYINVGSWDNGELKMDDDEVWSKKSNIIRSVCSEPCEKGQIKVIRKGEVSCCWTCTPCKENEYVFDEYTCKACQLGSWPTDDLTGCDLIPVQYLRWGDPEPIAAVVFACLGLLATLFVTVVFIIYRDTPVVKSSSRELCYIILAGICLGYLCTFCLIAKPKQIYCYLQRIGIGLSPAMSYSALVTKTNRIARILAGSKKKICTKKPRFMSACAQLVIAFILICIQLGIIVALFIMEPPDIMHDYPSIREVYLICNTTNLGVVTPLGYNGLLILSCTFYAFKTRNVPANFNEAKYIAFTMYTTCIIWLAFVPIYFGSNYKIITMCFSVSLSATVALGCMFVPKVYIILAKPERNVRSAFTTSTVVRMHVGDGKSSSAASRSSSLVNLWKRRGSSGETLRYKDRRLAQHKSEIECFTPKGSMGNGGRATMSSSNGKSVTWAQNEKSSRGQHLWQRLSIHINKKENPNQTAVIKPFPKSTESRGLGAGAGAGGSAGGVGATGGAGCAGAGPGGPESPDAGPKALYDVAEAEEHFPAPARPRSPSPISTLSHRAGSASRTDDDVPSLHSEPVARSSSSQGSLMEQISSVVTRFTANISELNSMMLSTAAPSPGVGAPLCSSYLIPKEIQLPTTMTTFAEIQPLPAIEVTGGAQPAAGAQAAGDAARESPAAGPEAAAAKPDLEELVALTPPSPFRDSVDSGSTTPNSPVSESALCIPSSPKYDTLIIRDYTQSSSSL
# experimentalProtocol: Calcium influx assay based on fluorescence (mGluR5 PAM activity)
# testConditions: human mGluR5 receptor-overexpressed HEK293 cell line; L-glutamate EC20; Fluo-4, FLIPR

Worked cases, answers included:
structureNotation: Fc1ccc(-c2cnc3nc(COc4ccccn4)cn3c2)c(C(F)(F)F)c1
studySystem: human mGluR5 receptor (Homo sapiens (Human), UniProt P41594)
result: 0.1 to 0.5 µM
--
structureNotation: Fc1cccc(OCc2cn3cc(-c4ccc(F)cc4C(F)(F)F)cnc3n2)c1
studySystem: human mGluR5 receptor (Homo sapiens (Human), UniProt P41594)
result: 0.1 to 0.5 µM
--
structureNotation: Fc1cccc(OCc2cn3cc(-c4cccnc4F)cnc3n2)c1
studySystem: human mGluR5 receptor (Homo sapiens (Human), UniProt P41594)
result: 0.1 to 0.5 µM
--
structureNotation: Nc1ccccc1-c1cnc2nc(COc3ccc(F)cc3)cn2c1
studySystem: human mGluR5 receptor (Homo sapiens (Human), UniProt P41594)
result: 0.1 to 0.5 µM

input: Item under review: Nc1cc(-c2cnc3nc(COc4ccccn4)cn3c2)ccc1F . Reported EC50?
output: 0.1 to 0.5 µM

input: Any idea what its EC50 is? The molecule is Fc1ccc(OCc2cn3cc(-c4cnccc4Cl)cnc3n2)cc1
output: 0.5 to 1 µM

input: Given the molecule Fc1ccc(OCc2cn3cc(-c4ccccc4)cnc3n2)cc1 , what is its reported EC50?
output: 0.1 to 0.5 µM

input: Recorded EC50 for Fc1ccc(OCc2cn3cc(-c4ccc(F)cc4)cnc3n2)cc1 , please?
output: 0.1 to 0.5 µM

input: Look at this molecule and give its reported EC50. COc1cc(Cl)ccc1-c1cnc2nc(COc3ccccc3)cn2c1
output: 0.5 to 1 µM

input: What measured EC50 goes with Nc1cc(F)ccc1-c1cnc2nc(COc3cccc(F)c3)cn2c1 ?
output: 0.1 to 0.5 µM

input: Endpoint output: EC50 of Fc1ccc(-c2cnc3nc(COc4cccc(F)c4)cn3c2)cc1 . Value?
output: 0.1 to 0.5 µM
